Test system: Pseudomonas aeruginosa PAM 1723 strain highly expressing the drug efflux pump
Assay Explanation: Effect of combinational use with an antimicrobial agent on multidrug resistant Pseudomonas aeruginosa (broth culture, transmittance and turbidity readout)
Assay type: cell-based
Assay Setup: minimum concentration of compound required to enhance antibacterial activity, levofloxacin (LVFX) at 1/8 or less of the minimum inhibitory concentration, combinational use for 7.5 hours, MHB, 1 × 10^6 CFU/ml
Experimental Endpoint: Combination with LVFX

| Compound | Obs Value |
| --- | --- |
| O=C(Cc1ccccc1C(=O)O)Nc1cccc(/C=C/c2nc(-c3ccccc3)cs2)c1 | <=0.63 µg/ml |
| O=C(Cc1ccccc1C(=O)O)Nc1cccc(C2CC2c2nc(-c3ccccc3)cs2)c1 (centres unmarked) | >40 µg/mL |
| CC(C)c1nsc(COc2cc(NC(=O)Cc3ccccc3C(=O)O)c(F)cc2F)n1 | <=0.63 µg/ml |
| O=C(Cc1ccccc1C(=O)O)Nc1cccc(C(=O)Nc2nc(-c3ccccc3)cs2)c1 | >40 µg/mL |
